The reader will find pKi measurements below, all made with Sodium-dependent serotonin transporter (Rattus norvegicus, UniProt P31652).
Sequence (P31652 whole entry): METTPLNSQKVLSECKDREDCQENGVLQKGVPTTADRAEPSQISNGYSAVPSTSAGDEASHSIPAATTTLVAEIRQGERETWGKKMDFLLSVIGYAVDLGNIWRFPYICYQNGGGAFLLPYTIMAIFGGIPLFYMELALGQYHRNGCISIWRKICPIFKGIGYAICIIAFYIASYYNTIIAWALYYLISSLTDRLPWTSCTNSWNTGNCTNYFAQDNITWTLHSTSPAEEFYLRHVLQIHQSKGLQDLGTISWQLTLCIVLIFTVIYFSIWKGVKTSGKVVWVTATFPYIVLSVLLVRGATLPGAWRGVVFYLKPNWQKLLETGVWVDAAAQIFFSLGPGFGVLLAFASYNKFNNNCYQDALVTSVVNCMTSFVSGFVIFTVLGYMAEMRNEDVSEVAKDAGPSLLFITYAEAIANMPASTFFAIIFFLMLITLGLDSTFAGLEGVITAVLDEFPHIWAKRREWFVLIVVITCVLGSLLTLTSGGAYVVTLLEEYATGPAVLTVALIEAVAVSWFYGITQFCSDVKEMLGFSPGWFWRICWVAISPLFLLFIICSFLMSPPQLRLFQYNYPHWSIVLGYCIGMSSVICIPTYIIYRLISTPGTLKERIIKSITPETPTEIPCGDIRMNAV
pKi: −log10 of the molar value.
ENDPOINT NAME: pKi

>>> observed_result("c1ccc(CCCNCCSC(c2ccccc2)c2ccccc2)cc1")
6.03
>>> observed_result("CCCCNCCSC(c1ccccc1)c1ccccc1")
5.24
>>> observed_result("[O-][S+](CCNCCCc1ccccc1)C(c1ccc(Cl)cc1)c1ccc(Cl)cc1 (stereo unspecified)")
6.26
>>> observed_result("CNC(=O)CSC(c1ccc(Cl)cc1)c1ccc(Cl)cc1")
4.97
>>> observed_result("CCCNC(=O)CSC(c1ccccc1)c1ccccc1")
3.38
>>> observed_result("C=CCNC(=O)CSC(c1ccccc1)c1ccccc1")
3.52

###

log10 of Ki by entry:
- STUDY TARGET: Sodium-dependent dopamine transporter (Rattus norvegicus)
- Sequence (P23977 whole entry): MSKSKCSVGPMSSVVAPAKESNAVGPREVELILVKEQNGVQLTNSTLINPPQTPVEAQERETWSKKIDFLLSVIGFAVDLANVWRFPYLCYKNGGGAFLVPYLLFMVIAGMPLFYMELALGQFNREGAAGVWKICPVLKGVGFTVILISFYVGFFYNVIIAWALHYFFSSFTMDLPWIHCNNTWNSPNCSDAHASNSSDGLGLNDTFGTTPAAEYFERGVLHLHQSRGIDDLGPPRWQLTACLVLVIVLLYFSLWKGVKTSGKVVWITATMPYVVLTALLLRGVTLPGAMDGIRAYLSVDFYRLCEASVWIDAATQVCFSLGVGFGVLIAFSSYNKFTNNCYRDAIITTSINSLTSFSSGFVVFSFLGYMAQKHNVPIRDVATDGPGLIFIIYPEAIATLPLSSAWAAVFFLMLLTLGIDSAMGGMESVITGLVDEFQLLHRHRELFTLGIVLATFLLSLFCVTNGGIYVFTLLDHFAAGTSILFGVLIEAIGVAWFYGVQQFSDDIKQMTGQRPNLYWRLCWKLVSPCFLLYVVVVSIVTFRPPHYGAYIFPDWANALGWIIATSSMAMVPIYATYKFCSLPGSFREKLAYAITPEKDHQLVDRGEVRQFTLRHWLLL
- EXPERIMENT NOTES: Displacement of [3H]WIN35,428 from Sprague-Dawley rat brain DAT after 120 mins by liquid scintillation counting analysis
- Format: tissue-based
ENDPOINT NAME: log10 of Ki (log10 of the value in µM)

>>> observed_result("O=C(CSC(c1ccccc1)c1ccccc1)NCC1CC1")
1.13
>>> observed_result("O=C(CSC(c1ccc(F)cc1)c1ccc(F)cc1)NCC1CC1")
0.83
>>> observed_result("CCCCNCCSC(c1ccccc1)c1ccccc1")
-0.51
>>> observed_result("[O-][S+](CCNCCCc1ccccc1)C(c1ccc(F)cc1)c1ccc(F)cc1 (stereo unspecified)")
-0.74
>>> observed_result("[O-][S+](CCNCCCc1ccccc1)C(c1ccc(Cl)cc1)c1ccc(Cl)cc1 (stereo unspecified)")
-0.19
>>> observed_result("O=C(CSC(c1ccc(Br)cc1)c1ccc(Br)cc1)NCC1CC1")
-0.01

###

- EXPERIMENT NOTES: Displacement of [3H]nisoxetine from Sprague-Dawley rat brain NET after 180 mins by liquid scintillation counting analysis
- Type: tissue-based
ENDPOINT NAME: Ki

>>> observed_result("O=C(CSC(c1ccc(Br)cc1)c1ccc(Br)cc1)NCCCc1ccccc1")
"35.5 µM"
>>> observed_result("[O-][S+](CCNCCCc1ccccc1)C(c1ccc(Cl)cc1)c1ccc(Cl)cc1 (stereo not drawn)")
"5.67 µM"
>>> observed_result("CCCNC(=O)CSC(c1ccc(F)cc1)c1ccc(F)cc1")
"59.7 µM"
>>> observed_result("CCCNC(=O)CSC(c1ccc(Br)cc1)c1ccc(Br)cc1")
"10.6 µM"
>>> observed_result("c1ccc(CCCNCCSC(c2ccccc2)c2ccccc2)cc1")
"5.5 µM"
>>> observed_result("CNC(=O)CSC(c1ccc(Br)cc1)c1ccc(Br)cc1")
"11 µM"
>>> observed_result("CCCCNCC[S+]([O-])C(c1ccccc1)c1ccccc1 (stereo not drawn)")
"138 µM"
>>> observed_result("NC(=O)CSC(c1ccccc1)c1ccccc1")
"285 µM"
>>> observed_result("CCCCNCCSC(c1ccccc1)c1ccccc1")
"11.5 µM"
>>> observed_result("CCCNC(=O)CSC(c1ccccc1)c1ccccc1")
"68 µM"
>>> observed_result("[O-][S+](CCNCCCc1ccccc1)C(c1ccc(Br)cc1)c1ccc(Br)cc1 (stereo not drawn)")
"8.65 µM"
>>> observed_result("NC(=O)CSC(c1cccc(Cl)c1)c1cccc(Cl)c1")
"45.4 µM"
>>> observed_result("C=CCNC(=O)CSC(c1ccccc1)c1ccccc1")
"171 µM"
